# Assay procedure: Thermodynamic stability constants of lanthanum complexes by potentiometric titration
# Condition: [M]tot = 10^−6 M, [L]tot = 10^−5 M, pH 7.4, 25° C., I = 0.1M KCl
Property name: pLa (−log [M]free)

O=C(O)CN(CCN(CC(=O)O)CC(=O)O)CC(=O)O [EDTA]
13.60
O=C(O)CN(CCN(CC(=O)O)CC(=O)O)CCN(CC(=O)O)CC(=O)O [DTPA]
16.28
O=C(O)CN1CCN(CC(=O)O)CCN(CC(=O)O)CCN(CC(=O)O)CC1 [DOTA]
16.62
O=C(O)c1cccc(CN2CCOCCOCCN(Cc3cccc(C(=O)O)n3)CCOCCOCC2)n1 [H2macropa]
15.58

----------
# Assay procedure: Thermodynamic stability constants of barium complexes by potentiometric titration
# Condition: pH 7.4, 25° C., I = 0.1M KCl
Property name: log KBa′ (conditional stability constant)

Guide cases for log KBa′ (conditional stability constant), answers given:
O=C(O)c1cccc(CN2CCOCCOCCN(Cc3cccc(C(=O)O)n3)CCOc3ccccc3OCC2)n1 [H2BZmacropa]
8.91
O=C(O)CN(CCN(CC(=O)O)CC(=O)O)CC(=O)O [EDTA]
4.99

(1) O=C(O)CN1CCN(CC(=O)O)CCN(CC(=O)O)CCN(CC(=O)O)CC1 [DOTA]
(2) O=C(O)c1cccc(CN2CCOCCOCCN(Cc3cccc(C(=O)O)n3)CCOCCOCC2)n1 [H2macropa]
Request: Which value of log KBa′ (conditional stability constant) is smaller, the one for 1 or the one for 2 ? Your answer should be the label of the entry you select.
Response: 1

----------
# Assay procedure: Protonation constants by potentiometric titration
# Assay type: physicochemical
# Condition: I=0.1 M KCl, 25° C.
Property name: log K1 (protonation constant)

Guide cases for log K1 (protonation constant), answers given:
O=C(O)c1cccc(CN2CCOCCOCCN(Cc3cccc(C(=O)O)n3)CCOc3ccccc3OCC2)n1 [H2BZmacropa]
7.06
O=C(O)CN(CCN(CC(=O)O)CC(=O)O)CC(=O)O [EDTA]
10.19
O=C(O)CN(CCN(CC(=O)O)CC(=O)O)CCN(CC(=O)O)CC(=O)O [DTPA]
10.34

(I) O=C(O)c1cccc(CN2CCOCCOCCN(Cc3cccc(C(=O)O)n3)CCOCCOCC2)n1 [H2macropa]
(II) O=C(O)CN1CCN(CC(=O)O)CCN(CC(=O)O)CCN(CC(=O)O)CC1 [DOTA]
Request: Which value of log K1 (protonation constant) is smaller, the one for I or the one for II ? Your answer should be the label of the entry you select.
Response: I
(I: 7.41, II: 11.14)

----------
# Assay procedure: Protonation constants by potentiometric titration
# Type: physicochemical
# Condition: I=0.1 M KCl, 25° C.
Property name: log K2 (protonation constant)

O=C(O)CN(CCN(CC(=O)O)CC(=O)O)CC(=O)O [EDTA]
6.13
O=C(O)c1cccc(CN2CCOCCOCCN(Cc3cccc(C(=O)O)n3)CCOCCOCC2)n1 [H2macropa]
6.90
O=C(O)CN(CCN(CC(=O)O)CC(=O)O)CCN(CC(=O)O)CC(=O)O [DTPA]
8.59
O=C(O)CN1CCN(CC(=O)O)CCN(CC(=O)O)CCN(CC(=O)O)CC1 [DOTA]
9.69
O=C(O)c1cccc(CN2CCOCCOCCN(Cc3cccc(C(=O)O)n3)CCOc3ccccc3OCC2)n1 [H2BZmacropa]
6.41
